Target: Nav 1.7 (Homo sapiens (Human), UniProt Q15858)
Sequence (Q15858 whole entry): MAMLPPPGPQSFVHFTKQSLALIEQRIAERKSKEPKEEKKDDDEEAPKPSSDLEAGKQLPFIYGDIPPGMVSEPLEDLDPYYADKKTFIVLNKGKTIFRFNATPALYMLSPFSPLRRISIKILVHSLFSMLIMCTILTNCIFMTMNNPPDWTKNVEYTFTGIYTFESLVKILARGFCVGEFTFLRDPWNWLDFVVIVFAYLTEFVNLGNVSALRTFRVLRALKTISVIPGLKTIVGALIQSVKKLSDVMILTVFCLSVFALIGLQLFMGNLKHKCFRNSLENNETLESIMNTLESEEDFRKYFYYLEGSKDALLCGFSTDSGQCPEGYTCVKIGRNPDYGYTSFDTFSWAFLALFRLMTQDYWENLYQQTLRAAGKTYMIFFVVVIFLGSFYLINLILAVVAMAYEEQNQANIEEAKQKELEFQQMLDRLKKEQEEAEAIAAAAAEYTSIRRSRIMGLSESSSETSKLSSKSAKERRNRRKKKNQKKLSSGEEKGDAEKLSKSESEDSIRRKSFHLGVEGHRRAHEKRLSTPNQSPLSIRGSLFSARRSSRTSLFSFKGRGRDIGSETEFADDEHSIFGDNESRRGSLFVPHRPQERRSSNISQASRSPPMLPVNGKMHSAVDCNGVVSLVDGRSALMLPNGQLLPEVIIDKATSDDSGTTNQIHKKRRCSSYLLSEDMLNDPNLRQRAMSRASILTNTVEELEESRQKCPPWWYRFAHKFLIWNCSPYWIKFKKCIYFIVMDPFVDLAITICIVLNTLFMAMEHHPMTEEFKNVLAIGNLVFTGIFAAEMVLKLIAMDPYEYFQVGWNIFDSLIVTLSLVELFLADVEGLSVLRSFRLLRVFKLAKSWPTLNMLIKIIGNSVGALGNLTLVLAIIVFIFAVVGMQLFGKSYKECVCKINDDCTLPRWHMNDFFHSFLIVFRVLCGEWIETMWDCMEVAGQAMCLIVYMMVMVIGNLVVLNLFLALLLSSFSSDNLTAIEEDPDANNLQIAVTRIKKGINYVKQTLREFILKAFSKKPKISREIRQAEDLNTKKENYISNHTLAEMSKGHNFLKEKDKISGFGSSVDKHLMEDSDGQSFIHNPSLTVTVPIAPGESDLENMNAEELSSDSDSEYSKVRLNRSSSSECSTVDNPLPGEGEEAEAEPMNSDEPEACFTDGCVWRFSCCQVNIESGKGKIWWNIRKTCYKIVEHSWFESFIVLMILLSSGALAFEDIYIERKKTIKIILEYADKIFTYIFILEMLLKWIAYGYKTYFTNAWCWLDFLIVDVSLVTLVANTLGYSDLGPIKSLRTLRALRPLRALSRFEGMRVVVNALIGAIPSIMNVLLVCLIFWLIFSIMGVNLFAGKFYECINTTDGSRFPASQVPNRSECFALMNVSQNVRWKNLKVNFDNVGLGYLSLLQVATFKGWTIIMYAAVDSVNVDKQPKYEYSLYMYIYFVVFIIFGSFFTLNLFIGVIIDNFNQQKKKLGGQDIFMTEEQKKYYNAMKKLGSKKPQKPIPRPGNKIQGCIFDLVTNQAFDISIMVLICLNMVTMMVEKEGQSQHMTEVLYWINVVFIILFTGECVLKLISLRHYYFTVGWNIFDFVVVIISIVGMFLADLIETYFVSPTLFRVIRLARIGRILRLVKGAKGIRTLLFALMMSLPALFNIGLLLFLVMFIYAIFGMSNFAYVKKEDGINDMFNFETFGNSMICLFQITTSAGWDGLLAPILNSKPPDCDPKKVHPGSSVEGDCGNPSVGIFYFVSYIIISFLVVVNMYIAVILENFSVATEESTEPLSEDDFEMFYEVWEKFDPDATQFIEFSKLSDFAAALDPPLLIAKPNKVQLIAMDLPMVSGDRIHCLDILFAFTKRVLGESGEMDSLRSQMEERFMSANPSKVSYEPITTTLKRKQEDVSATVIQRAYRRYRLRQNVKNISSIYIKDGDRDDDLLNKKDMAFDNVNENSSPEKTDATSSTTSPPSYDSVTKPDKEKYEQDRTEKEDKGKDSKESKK
Test: Nav 1.7 in vitro assay, IonWorks Quattro (IWQ) population patch-clamp
Type: cell-based
Conditions: HEK 293 cells stably transfected with Nav 1.7; 26th pulse to -20 mV
experimentalReadout: IC50 (nM)

Consider the following illustrative entries.
Field IC50 (entry COc1cc(C#N)ccc1N1CCOc2cc(S(=O)(=O)Nc3nccs3)c(F)cc21 ) reads 8

Value of IC50 reported for the molecule O=S(=O)(Nc1nccs1)c1ccc2c(c1)OCCN2c1ccc(F)c(F)c1 [Example 84, 2,2,2-Trifluoroacetate] is 326

A: O=S(=O)(Nc1nccs1)c1ccc2c(c1)OCCN2c1cccc(C(F)(F)F)c1 [Example 173, 2,2,2-Trifluoroacetate]
B: O=S(=O)(Nc1nccs1)c1ccc2c(c1)OCCN2c1ccccc1
IN: Return label of the item with the larger IC50. Candidates: A , B . In your reply, give the label of the chosen option.
OUT: B
(B: 700 nM, A: 236 nM)

---

Biological target: Nav 1.7 (Homo sapiens (Human))
Assay: Nav 1.7 in vitro PX assay, PatchXpress whole cell voltage clamp
Format: cell-based
Conditions: HEK 293 cells stably transfected with human Nav1.7; partially inactivated state (20 to 50% inactivation)
experimentalReadout: IC50 (µM)

The examples below pair each entry with its known result.
Reported IC50 for O=S(=O)(Nc1nccs1)c1ccc2c(c1)OCCN2c1ccc(C(F)(F)F)cc1CC(O)CO (racemic) was 0.0867

Briefly, IC50 measured for Cn1nccc1-c1cc(C(F)(F)F)ccc1N1CCOc2cc(S(=O)(=O)Nc3nccs3)ccc21 : 1.54

Item: COc1cc(Cl)ccc1N1C[C@@H](C)Oc2cc(S(=O)(=O)Nc3nccs3)ccc21 (single isomer, unassigned) | IC50: 0.894

I: [N-]=[N+]=Nc1ccc(N2CCOc3cc(S(=O)(=O)Nc4nccs4)ccc32)c(Br)c1 [Example 64, 2,2,2-Trifluoroacetate]
II: COc1cc(Cl)ccc1N1CCOc2cc(S(=O)(=O)Nc3nccs3)ccc21
III: O=S(=O)(Nc1ncns1)c1ccc2c(c1)OCCN2c1ccc(C(F)(F)F)cc1-c1cncnc1
IV: O=S(=O)(Nc1ncns1)c1ccc2c(c1)OCCN2c1ccc(C(F)(F)F)cc1C1=CCOCC1
IN: Give the ascending ranking of the items by reported IC50. // rank by listing labels in the order requested
OUT: II, IV, III, I

---

Target: Nav 1.7 (Homo sapiens (Human))
Assay: Nav 1.7 in vitro PX assay, PatchXpress whole cell voltage clamp
Type: cell-based
Conditions: HEK 293 cells stably transfected with human Nav1.7; partially inactivated state (20 to 50% inactivation)
pIC50: −log10 of the molar value.
experimentalReadout: pIC50

Entry under test: O=S(=O)(Nc1nccs1)c1ccc2c(c1)OCCN2c1ccc2ncsc2c1 [Example 71, 2,2,2-Trifluoroacetate] . Its pIC50 was 5.27

Recorded result, O=S(=O)(Nc1ncns1)c1ccc2c(c1)OCCN2c1ccc(C(F)(F)F)cc1-c1cn[nH]c1 , pIC50: 7.24

Consider Cc1onc(-c2ccccc2)c1CN1CCOc2cc(S(=O)(=O)Nc3nccs3)ccc21 . Its measured pIC50 is 5.52

Entry O=S(=O)(Nc1ncns1)c1ccc2c(c1)OCCN2c1cccc2ccccc12 ; pIC50 = 6.84

Entry O=S(=O)(Nc1ncns1)c1ccc2c(c1)OCC(c1ccccc1)N2c1ccc(C(F)(F)F)cc1 (stereo not drawn) ; pIC50 = 5.46

The compound listed as COc1ccc(OC)c(N2CCOc3cc(S(=O)(=O)Nc4nccs4)ccc32)c1 has a reported pIC50 of 6.38

Data point: O=S(=O)(Nc1cscn1)c1ccc2c(c1)OCCN2c1ccc(C(F)(F)F)cc1Br ; pIC50 = 5.61

Recorded pIC50 (compound CC1CN(c2ccc(C(F)(F)F)cc2C#N)c2ccc(S(=O)(=O)Nc3nccs3)cc2O1 (racemic) ): 6.25

A: COc1ccc(C(F)(F)F)cc1N1C(=O)COc2cc(S(=O)(=O)Nc3nccs3)ccc21
B: N#Cc1cccc(F)c1N1CCOc2cc(S(=O)(=O)Nc3nccs3)ccc21
C: N#Cc1cc(C(F)(F)F)ccc1N1CCOc2cc(S(=O)(=O)Nc3ncns3)ccc21
IN: Provide the items ranked by increasing pIC50. The reply should contain the labels ordered as requested.
OUT: B, A, C
(B: 5.09, A: 6.29, C: 7.04)

I: COc1ccccc1N1CCOc2cc(S(=O)(=O)Nc3nccs3)ccc21
II: Cc1ccc(F)cc1N1CCOc2cc(S(=O)(=O)Nc3nccs3)ccc21 [Example 79, 2,2,2-Trifluoroacetate]
IN: Field: lower pIC50 | Options: I / II Field: selected label. Fill in the label of the entry you choose.
OUT: II

I: O=S(=O)(Nc1nccs1)c1ccc2c(c1)OCCN2c1ccc(C(F)(F)F)cc1Cl
II: COc1cnccc1N1CCOc2cc(S(=O)(=O)Nc3nccs3)ccc21
IN: Param metric = pIC50; output whichever of I , II has the minimum value. Please identify the chosen entry by its label.
OUT: II
(II: 5.35, I: 6.49)

I: COc1cc(F)ccc1N1C(=O)COc2cc(S(=O)(=O)Nc3nccs3)ccc21
II: N#Cc1cc(-c2ccc(F)cc2)ccc1N1CCOc2cc(S(=O)(=O)Nc3nccs3)ccc21
IN: Hi there, can you help? I need to know whether I or II has lower measured pIC50. Respond using the label that marks the chosen record.
OUT: I
(I: 6.21, II: 6.41)

a: COCCNc1cc(C(F)(F)F)ccc1N1CCOc2cc(S(=O)(=O)Nc3ccncn3)ccc21
b: CC(C)c1ccc(N2CCOc3cc(S(=O)(=O)Nc4nccs4)ccc32)c(C#N)c1
c: O=S(=O)(Nc1cscn1)c1ccc2c(c1)OCCN2c1ccc(C(F)(F)F)cc1C1=CCNCC1
d: O=S(=O)(Nc1nccs1)c1ccc2c(c1)OCCN2c1cccc(C(F)(F)F)c1 [Example 173, 2,2,2-Trifluoroacetate]
e: O=S(=O)(Nc1nccs1)c1ccc2c(c1)OCCN2c1ccccc1
IN: Put the items in order so that reported pIC50 rises from first to last. To answer, arrange all of the labels according to the requested order.
OUT: e, d, a, b, c

a: O=C1COc2cc(S(=O)(=O)Nc3nccs3)ccc2N1c1ccc(C(F)(F)F)cc1Cl
b: O=S(=O)(Nc1ncns1)c1ccc2c(c1)OCCN2c1cccc2ncccc12
c: O=S(=O)(Nc1nccs1)c1ccc2c(c1)OCCN2c1ccccc1Oc1ccncc1
IN: Sort (3 compounds) by pIC50: min first. Give the order by naming the labels one after another as requested.
OUT: c, b, a
(c: 5.65, b: 5.92, a: 6.32)

A: Cc1cc(OC(F)(F)F)ccc1N1CCOc2cc(S(=O)(=O)Nc3nccs3)ccc21
B: COc1ccc(N2CCOc3cc(S(=O)(=O)Nc4nccs4)ccc32)cc1C#N
IN: Which has the higher pIC50, A or B ? Identify your selection by its label.
OUT: A
(A: 5.87, B: 4.74)

a: O=S(=O)(Nc1ncns1)c1ccc2c(c1)NCCN2c1ccc(C(F)(F)F)cc1Cl
b: N#Cc1cc(C(F)(F)F)ccc1N1CCOc2cc(S(=O)(=O)Nc3ccncn3)ccc21
IN: Smaller pIC50 value? Options are a and b Let me know the label of the one you choose.
OUT: a

FYI, the data here is from patent US9346798B2.
